Recorded IC50 values for a group of compounds are listed next.
# Tested on: SNU1;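 further: growth inhibition of human NCI-SNU-1 cells, measured with a cell viability assay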
# test_summary: cells
# Assay type: functional, cell-based, Homo sapiens
# condition_details: Homo sapiens, SNU1
# Description: SANGER: Inhibition of human NCI-SNU-1 cell growth in a cell viability assay.
All answers are understood in µM, so give the number only.

Entry N#Cc1c(O)c2c(-c3ccc(-c4ccccc4O)cc3)csc2[nH]c1=O : reported IC50 = ?
0.311

###

IC50 values, listed per item
# Tested on: KP-N-YS;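 further: cell viability assay measuring inhibition of cell line growth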
# test_summary: cells
# Format: functional, cell-based, Homo sapiens
# condition_details: Homo sapiens, KP-N-YS
# Description: SANGER: Inhibition of human KP-N-YS cell growth in a cell viability assay.

>>> result("Cc1cn(-c2cc(NC(=O)c3ccc(C)c(Nc4nccc(-c5cccnc5)n4)c3)cc(C(F)(F)F)c2)cn1")
"> 2 µM"
>>> result("Nc1cccc2c1CN(C1CCC(=O)NC1=O)C2=O (centres undefined) [LENALIDOMIDE]")
"> 5 µM"

Lab note: need IC50 with KP-N-YS for entry COc1cc(-c2nn([C@H]3CC[C@H](N4CCN(C(C)=O)CC4)CC3)c3ncnc(N)c23)ccc1NC(=O)c1cc2ccccc2n1C , please look it up.
> 5.12 µM

Which IC50 is reported with KP-N-YS for this entry: Cc1cc([N+](=O)[O-])ccc1NS(=O)(=O)c1cc(Cl)ccc1Cl ?
15.9 µM

meta.source: ChEMBL document CHEMBL1201861
